B1: Osa-1-4 twister ribozyme (parent)
chain: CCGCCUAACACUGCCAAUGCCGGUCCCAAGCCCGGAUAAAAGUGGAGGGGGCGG

# Variants of: B1
# method description: self-cleavage, relative activity (ratio to wild type); higher = more cleavage; co-transcriptional
value type: self-cleavage
Answer field: number only, no words.

# annotated cases, reported self-cleavage shown
record sequence: CCGCCUAACACUGCCAAUGCCGAUCCCAAGCCCGGAUAAGAGUGGAGGGGGCGG [A40G G23A]
value type: self-cleavage
reported value: 0.12
//
record sequence: CCGCCUAACACUGUCAAUGCCGGUCCCAAGCCAGGAUAAAAGUGGAGGGGGCGG [C14U C33A]
value type: self-cleavage
reported value: 0.04
//
record sequence: CCGCCUAACACUGCCAAUGCCGGUUCCAAGCCCGGAUCAAAGUGGAGGGGGCGG [A38C C25U]
value type: self-cleavage
reported value: 0.88

Query: Supply self-cleavage value. Item: CCGCCUAACACCGCCAAUGCCGGUCCCAAGCCCGGAUAAAAGUGGACGGGGCGG [G47C U12C]
Reply: 0.05

Query: Supply self-cleavage value. Item: CCGCCUAACACUGCCAGUGCGGGUCCCAAGCCCGGAUAAAAGUGGAGGGGGCGG [A17G C21G]
Reply: 0.09
